Where these numbers come from: patent US5952310A

Let's look at some compounds and their measured Minimal Inhibitory Concentration (MIC) SH 415.
Tested on: Staphylococcus haemolyticus 415
Assay: MIC, standard broth micro-dilution assay, SH 415
Format: cell-based
API doc: respond with a numeric literal and nothing else, no unit.

{"compound": "CC1OC(OC2c3ccc(c(Cl)c3)Oc3cc4cc(c3OC3OC(CO)C(O)C(O)C3OC3CC(C)(NCc5ccc(Oc6ccccc6)cc5)C(O)C(C)O3)Oc3ccc(cc3Cl)C(O)C(N)C(=O)NC(CC(N)=O)C(=O)NC4C(=O)NC3C(=O)NC2C(=O)NC(C(=O)O)c2cc(O)cc(O)c2-c2cc3ccc2O)CC(C)(N)C1O (stereo not drawn)", "subject-of-test": "Staphylococcus haemolyticus 415", "quantitative-readout": 1}

# next compound below
// recorded Minimal Inhibitory Concentration (MIC) SH 415 for CCCCc1ccc(CNC2(C)CC(OC3C(Oc4c5cc6cc4Oc4ccc(cc4Cl)C(OC4CC(C)(N)C(O)C(C)O4)C4NC(=O)C(NC(=O)C6NC(=O)C(CC(N)=O)NC(=O)C(N)C(O)c6ccc(c(Cl)c6)O5)c5ccc(O)c(c5)-c5c(O)cc(O)cc5C(C(=O)O)NC4=O)OC(CO)C(O)C3O)OC(C)C2O)cc1 (stereo not drawn) : 2
